Numbers sourced from the supplement of paper PMC11061612.

system: COLO-678 (Colorectal Carcinoma); test: Bliss excess, mean over the matrix (fraction); higher = more synergy;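 note: after 72 h of two-drug dosing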
metric name: Bliss excess
Numbers only.

CC1(C)CCC(CN2CCN(c3ccc(C(=O)NS(=O)(=O)c4ccc(NCC5CCOCC5)c([N+](=O)[O-])c4)c(Oc4cnc5[nH]ccc5c4)c3)CC2)=C(c2ccc(Cl)cc2)C1 [Venetoclax] + CN(C)CCCOc1ccc(-c2ccc3ncc4c(c3c2)n(C2CCOCC2)c(=O)n4C)cn1 [AZD0156] (first compound max 1 µM, 7x7, partner max 1 µM)
-0.0549
Cc1c2c(nn1C)CSCc1cc(n(C)n1)CSc1cc(c3ccccc3c1)OCCCc1c(C(=O)O)n(C)c3c-2c(Cl)ccc13 [AZD5991] + C=CCn1c(=O)c2cnc(Nc3ccc(N4CCN(C)CC4)cc3)nc2n1-c1cccc(C(C)(C)O)n1 [AZD1775] (first compound max 1 µM, partner max 1 µM)
-0.0614
COc1cc2c(cc1OCCCCCOc1cc3c(cc1OC)C(=O)N1C=C(C)C[C@H]1C=N3)N=C[C@@H]1CC(C)=CN1C2=O [SG3199] + O=C(c1cc(Cc2n[nH]c(=O)c3ccccc23)ccc1F)N1CCN(C(=O)C2CC2)CC1 [Olaparib] (first compound max 0.001 µM, 7x7, partner max 10 µM)
-0.0144
CC(=O)c1c(C)c2cnc(Nc3ccc(N4CCNCC4)cn3)nc2n(C2CCCC2)c1=O [Palbociclib] + CC1(C)CCC(CN2CCN(c3ccc(C(=O)NS(=O)(=O)c4ccc(NCC5CCOCC5)c([N+](=O)[O-])c4)c(Oc4cnc5[nH]ccc5c4)c3)CC2)=C(c2ccc(Cl)cc2)C1 [Venetoclax] (first compound max 10 µM, 7x7, partner max 1 µM)
0.0158
COc1cccc2c1C(=O)c1c(O)c3c(c(O)c1C2=O)C[C@@](O)(C(=O)CO)C[C@@H]3O[C@H]1C[C@H](N)[C@H](O)[C@H](C)O1 [Doxorubicin] + Cc1cc2ncnn2cc1Nc1ncc2c(n1)n(C1CCOCC1)c(=O)n2C [AZD7648] (first compound max 1 µM, 7x7, partner max 10 µM)
0.0188

As a next step, examine the molecule that follows.
Provide the documented Bliss excess with COLO-678 (Colorectal Carcinoma) as the system for Cc1c2c(nn1C)CSCc1cc(n(C)n1)CSc1cc(c3ccccc3c1)OCCCc1c(C(=O)O)n(C)c3c-2c(Cl)ccc13 [AZD5991] + C[C@@H]1COCCN1C2=NC(=NC(=C2)C3(CC3)[S@](=N)(=O)C)C4=C5C=CNC5=NC=C4 [AZD6738] (first compound max 1 µM, 7x7, partner max 10 µM) -0.0899
